Every entry's value here was drawn from patent US8975264B2.

Target: UniProtKB P21554
Sequence (P21554 whole entry): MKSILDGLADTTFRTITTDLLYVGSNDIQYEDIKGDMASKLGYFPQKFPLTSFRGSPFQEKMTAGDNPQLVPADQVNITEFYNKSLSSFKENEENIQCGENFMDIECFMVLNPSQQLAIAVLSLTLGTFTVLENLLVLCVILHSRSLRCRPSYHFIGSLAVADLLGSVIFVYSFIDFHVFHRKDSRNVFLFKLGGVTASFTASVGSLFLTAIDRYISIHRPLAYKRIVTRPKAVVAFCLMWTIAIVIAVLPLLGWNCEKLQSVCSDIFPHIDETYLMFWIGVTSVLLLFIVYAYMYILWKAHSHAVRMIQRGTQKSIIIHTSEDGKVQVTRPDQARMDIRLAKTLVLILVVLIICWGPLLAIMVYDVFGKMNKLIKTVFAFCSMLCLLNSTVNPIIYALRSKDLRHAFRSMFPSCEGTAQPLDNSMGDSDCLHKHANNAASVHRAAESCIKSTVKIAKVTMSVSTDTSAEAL
Assay: CB1 receptor inhibition effect: calcium ion influx assay (Fluo-4 NW) in Chem-1 cells after 1 μM R-(+)-WIN55212-2
Settings: calcium ion influx in Chem-1 cells expressing human CB1, 1 μM R-(+)-WIN55212-2
observation-type: IC50 (nM)

Below, each entry is followed by its recorded IC50 result.
Cc1nn2c(-c3ccc(F)c(F)c3)cc(N3CCC[C@H]3CO)nc2c1-c1ccc(Cl)cc1 51
CCc1ccc(-c2c(C)nn3c(-c4cccc(C(F)(F)F)c4)cc(N4CCC[C@H]4CO)nc23)cc1 73
Cc1nn2c(-c3ccc(F)cc3)cc(N3CCC[C@H]3CO)nc2c1-c1ccc(F)cc1F 350
Cc1ccc(-c2cc(N3CCC[C@H]3CO)nc3c(-c4ccc(C(F)(F)F)cc4)c(C)nn23)cc1 410

[A] Cc1nn2c(-c3ccc(F)cc3)cc(N3CCC[C@H]3CO)nc2c1-c1ccc2c(c1)OCO2
[B] CCc1ccc(-c2c(C)nn3c(-c4ccc(C)cc4)cc(N4CCC[C@H]4CO)nc23)cc1
[C] CCOCc1nn2c(-c3cccc(C(F)(F)F)c3)cc(N3CCC[C@H]3CO)nc2c1-c1ccc(Cl)cc1
[D] CCOCc1nn2c(-c3cccc(C(F)(F)F)c3)cc(N(C)CCO)nc2c1-c1ccc(OC)cc1
Challenge: Put these in order: smallest IC50 first, largest last. State the ranking by listing the labels in the requested order.
Response given: C, D, A, B
